# MEASUREMENT TARGET: Endoribonuclease Dicer (Homo sapiens)
# EXPERIMENT DESCRIPTION: Dicer cleavage of pre-miR-21 blockers – biochemical, cat-ELCCA, chemiluminescence, primary screen (AID 1347074);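 note: plate controls were vehicle for no effect and no enzyme for full effect; higher signal means more uncleaved substrate so more Dicer inhibition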
# SETTINGS: cat-ELCCA pre-miR-21 Dicer processing, at 25 µM, hits give high values
Among all 47,000 compounds or so, about 2,800 (6%) were called active. For the sample, actives were picked, then their nearest neighbours and some compounds at random.
# maps each entry to its z-score

>  <MOL SMILES>
COC(=O)c1sc(C(F)(F)F)c(-c2ccccc2)c1S(=O)(=O)N(C)C

>  <z-score>
0.21

$$$$
>  <MOL SMILES>
Cc1onc(-c2c(Cl)cccc2Cl)c1C(=O)NN(C)c1ccc([N+](=O)[O-])cn1

>  <z-score>
0.9

$$$$
>  <MOL SMILES>
COC(NC(=O)c1ccccc1)(C(F)(F)F)C(F)(F)F

>  <z-score>
-0.72

$$$$
